Reference source: PubChem BioAssay (NCI)

Tested on: SN12C renal
Assay: NCI tumour cell line growth inhibition, 48 h
experimental-endpoint: TGI

Known TGI results, listed for orientation:
compound	experimental-endpoint	result
COc1ccc(-c2cc(-c3ccc(Nc4nc(Nc5ccc(Cl)cc5)nc(Nc5ccc(Cl)cc5)n4)cc3)no2)cc1	TGI	> 100 µM
COC(=O)c1ccccc1C1CN=NC12Cc1c(C)cc(C)cc1C2=O (stereo not drawn)	TGI	> 100 µM
O=c1c2cccnc2[nH]c2ccc3scnc3c12	TGI	> 10 µM
COc1ccc(-c2oc3c(CC(=O)O)cccc3c(=O)c2OC)cc1	TGI	> 100 µM
C[C@]12CCC3c4ccc(OC(=O)c5ccccc5)cc4CC[C@H]3C1CC[C@@H]2OC(=O)C12OC1CCC2=O (stereo partly drawn)	TGI	11.9 µM
O=C1C2CC3C(CC2C(=O)[N]1[Sn]([c]1ccccc1)([c]1ccccc1)[c]1ccccc1)C1(Cl)C(Cl)=C(Cl)C3(Cl)C1(Cl)Cl (stereo not drawn)	TGI	0.448 µM
C=CCNC1=C2C[C@@H](C)C[C@@H](OC)[C@H](OC(=O)CN(C)C)[C@H](C)/C=C(\C)[C@@H](OC(N)=O)[C@H](OC)/C=C\C=C(/C)C(=O)NC(=CC1=O)C2=O	TGI	17.7 µM

Now examine the next entry.
Name the reported TGI value associated with the compound CC(=O)O[C@H]1C(=O)[C@@]2(C)C(C(OC(=O)c3ccccc3)[C@]3(O)CC(OC(=O)C(O)C(NC(=O)c4ccccc4)c4ccc(F)cc4)C(C)=C1C3(C)C)[C@]1(OC(C)=O)CO[C@@H]1C[C@@H]2O (stereo partly drawn)
> 10 µM
